test system: MDA-MB-231 breast; assay: NCI-60 one-dose screen, 48 h (100 = growth as untreated, 0 = no growth, -100 = all killed); settings: 10 µM
Compounds without any hit were thinned out: in the full panel of roughly 83,000, 20% have a hit.

{"columns": ["Compound", "Units Label", "growth"],
 "data": [
  ["COc1ccc(/C=C/C(C)=N/OCC(=O)O)cc1", "%", 120],
  ["COc1cc2c(cc1OC)N(CCO)C1=C(C(=O)OC1)C2c1ccc(Cl)c(Cl)c1 (stereo not given)", "%", 96.8],
  ["O=c1c2ccccc2nc(SCCN2CCCCC2)n1CCc1ccccc1", "%", 66.5],
  ["O=C(Nc1cccc(-n2cc(-c3ccncc3)c(-c3cc(O)cc(Cl)c3)n2)c1)c1cc(C(F)(F)F)cc(C(F)(F)F)c1", "%", -34.6],
  ["COc1ccc2c(c1)C(=O)c1c-2c(OCCN(C)C)nc2cc(OC)c(OC)cc12", "%", 72.3],
  ["COc1ccc(NC(=O)CSc2nc3ccccc3c(=O)n2CCc2ccccc2)cc1", "%", 61.5],
  ["Nc1ccccc1NC(=O)CCCCC(=O)Nc1ccc2c(c1)/C(=C/c1ccc[nH]1)C(=O)N2", "%", 93],
  ["Cc1cccc(C)c1NC(=O)c1sc2nc3c(cc2c1N)C(=O)CCC3", "%", 79],
  ["C/C(N)=C(\\C#N)C(=O)c1ccccc1", "%", 121],
  ["CN(C)C(=S)N/N=C\\C=N/NC(=S)N(C)C", "%", 37.3]
]}
